The origin of these recorded values is PubChem BioAssay (NCI).

System: DU-145 prostate
Assay: NCI tumour cell line growth inhibition, 48 h; in the data active = GI50 below about 0.43 µM; inactive = the rest
Outcome codes: active, inactive

- compound: "CCCCCCC#Cc1ccccc1C#CCO"
  class: "inactive"
- compound: "C[C@H]1[C@H](C)CC[C@]2(C(=O)N3CCN(C)CC3)CC[C@]3(C)C(=CC[C@@H]4[C@@]5(C)C/C(=C/c6cccnc6)C(=O)C(C)(C)[C@@H]5CC[C@]43C)[C@H]12"
  class: "inactive"
- compound: "Cc1nn(-c2ccccc2)c2c1CC(=O)Nc1ccccc1-2"
  class: "active"
- compound: "Cc1nc2sc(C(=O)Nc3cccc4ccccc34)c(N)c2cc1C(=O)/C=C/c1ccccc1"
  class: "inactive"
- compound: "Cn1c(=O)c(Oc2ccc(F)cc2F)cc2cnc(NC(CO)CO)nc21"
  class: "inactive"
- compound: "COc1ccc2c(c1)c(-c1nc(-c3c[nH]c4ncccc34)cs1)cn2CCCCN1CCOCC1"
  class: "inactive"
- compound: "CCN1CCN(CC(=O)Nc2nc3ccc(NCc4ccc(Cl)cc4)cc3s2)CC1"
  class: "inactive"
- compound: "NC(=NC1CCCCCCC1)c1ccc(N2CCN(c3ccc(C(N)=NC4CCCCCCC4)cc3)CC2)cc1"
  class: "inactive"
- compound: "Cc1nc2cnc3cc(F)c(-c4ccc(Oc5ncccn5)cc4Cl)cc3c2n1[C@H]1CCN(C(=O)CO)C[C@@H]1F"
  class: "inactive"
- compound: "N=c1c2c(-c3ccccc3)c(-c3ccccc3)n(Cc3ccccc3)c2ncn1CCCO"
  class: "inactive"
- compound: "CS(=O)(=O)c1ccc(-c2cnc(N)c(C(=O)Nc3ccccc3)n2)cc1"
  class: "inactive"
- compound: "O=C1CC(c2ccc3c(c2)OCO3)Nc2cc3c(cc21)OCO3 (centres undefined)"
  class: "active"
- compound: "COc1ccc(C(=O)COc2cccc(/C=C3\\CSc4ccccc4C3=O)c2)cc1"
  class: "inactive"
- compound: "C/C(=C\\c1ccn(-c2ccc(N)c(F)c2)n1)[C@@H]1C[C@@H]2O[C@]2(C)CCC[C@H](C)[C@H](O)[C@@H](C)C(=O)C(C)(C)[C@@H](O)CC(=O)O1"
  class: "active"
- compound: "CC(C)C[C@H](NC(=O)[C@H]1O[C@@H]1C(=O)O)C(=O)NCCc1ccc(O)cc1"
  class: "inactive"
- compound: "O=C1C=C[C@@]23C[C@@H](Nc4c(O)c5c6c(c42)=NCCC=6C=N5)SC3=C1"
  class: "inactive"
- compound: "C=C(C)[C@@H]1CC[C@]2(C(=O)NCCNCCNCCN)CC[C@]3(C)[C@H](CC[C@@H]4[C@@]5(C)CC[C@H](O)C(C)(C)[C@@H]5CC[C@]43C)[C@@H]12"
  class: "inactive"
- compound: "CC1=CCC(OC(=O)C(C)(C)CCC(O)(C(=O)OC2(C(C)C)CCC3(C)OC3C2)C(C)C)(C(C)C)CC1 (centres undefined)"
  class: "active"
- compound: "CC(C)(O)C1CCC(Nc2ccc3ncc(-c4cccc(C(F)(F)F)c4)n3n2)CC1 (centres undefined)"
  class: "inactive"

---

Test system: A498 renal
Test: NCI tumour cell line growth inhibition, 48 h
test_readout: TGI (µM)

- molecule: "CC(=O)Nc1ccc(/C=N\\N2C(=O)c3ccccc3C2=O)cc1"
  measurement_unit: "µM"
  bound_type: ">"
  observed: 100
- molecule: "NC1=NNC2(C(=O)N1)c1ccccc1-c1ccccc12"
  measurement_unit: "µM"
  bound_type: ">"
  observed: 10
- molecule: "COc1cc(Cn2c(=S)ss/c2=N\\C(=S)N(C)C)cc(OC)c1OC"
  measurement_unit: "µM"
  bound_type: ">"
  observed: 100
- molecule: "CC(CN1CCN(C)CC1)CN1c2ccccc2Sc2ccc(C(F)(F)F)cc21 (stereo unspecified)"
  measurement_unit: "µM"
  bound_type: "="
  observed: 15.2
- molecule: "CN(CC(=O)O)c1ccc(/C=C/c2ccnc3ccccc23)cc1"
  measurement_unit: "µM"
  bound_type: "="
  observed: 47.1
- molecule: "O=C1CCCCC1=C(I)I"
  measurement_unit: "µM"
  bound_type: "="
  observed: 35.5
- molecule: "C=C1CCC2CC1[C@@H](C(=O)c1c[nH]c3ccccc13)NC2(C)C (stereo partly specified)"
  measurement_unit: "µM"
  bound_type: ">"
  observed: 37.5
- molecule: "CCN1CCN(CC(=O)Nc2nc3ccc(NCc4ccc(Cl)cc4)cc3s2)CC1"
  measurement_unit: "µM"
  bound_type: "="
  observed: 17
- molecule: "O=C1NC(=S)NC(=O)C1C(c1ccc([N+](=O)[O-])cc1)C1C(=O)NC(=S)NC1=O"
  measurement_unit: "µM"
  bound_type: ">"
  observed: 100
- molecule: "Nc1ccc2nc3ccc(N)cc3[n+](-c3ccccc3)c2c1"
  measurement_unit: "µM"
  bound_type: ">"
  observed: 100
- molecule: "CC(/C(=N/NC(=O)C(N)=O)c1c(Cl)ccc(Cl)c1O)C1(O)C(=O)Nc2ccccc21 (stereo unspecified)"
  measurement_unit: "µM"
  bound_type: "="
  observed: 76.9
